# tested.on: PDK3 (Homo sapiens)
# Construct: made in house
# test.details: Isothermal titration calorimetry
# Type: binding
# experimental.conditions: ITC 25 °C, four site model, site 4 (printed Ka3); read-out: Ka3 (Association Constant), fourth line of the table
assay.metric: Kd (µM)
Give the value in µM but do not write µM after it.

PDK3 (Homo sapiens) / Kd / `CN(C)CCc1ccc(O)cc1` : value?
400

----------
# tested.on: PDK3 (Homo sapiens, UniProt Q15120)
# Construct: made in house
# Sequence (Q15120 whole entry): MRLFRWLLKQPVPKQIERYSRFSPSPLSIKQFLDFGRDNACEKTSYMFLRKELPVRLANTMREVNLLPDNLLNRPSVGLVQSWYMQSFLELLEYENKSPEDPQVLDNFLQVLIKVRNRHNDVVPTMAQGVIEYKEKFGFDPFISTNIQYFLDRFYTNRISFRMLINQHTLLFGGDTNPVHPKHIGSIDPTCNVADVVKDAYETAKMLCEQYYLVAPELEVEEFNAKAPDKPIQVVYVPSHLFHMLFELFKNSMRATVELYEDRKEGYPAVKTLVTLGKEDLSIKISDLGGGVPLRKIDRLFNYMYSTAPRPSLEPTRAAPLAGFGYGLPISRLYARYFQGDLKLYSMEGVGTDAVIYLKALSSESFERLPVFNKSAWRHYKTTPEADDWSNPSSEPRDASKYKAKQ
# test.details: Isothermal titration calorimetry
# Assay type: binding
# experimental.conditions: ITC 25 °C, four site model, site 2; read-out: Ka2 (Association Constant)
assay.metric: pKd
// pKd is dimensionless: -log10 of concentration (M)

Would you kindly share the measured pKd for `CN(C)CCc1ccc(O)cc1` ?
4.97

----------
# tested.on: PDK3 (Homo sapiens, UniProt Q15120)
# Construct: made in house
# test.details: Isothermal titration calorimetry
# Format: binding
# experimental.conditions: ITC 25 °C, four site model, site 3; read-out: Ka3 (Association Constant)
assay.metric: pKd
// pKd is dimensionless: -log10 of concentration (M)

Would you kindly share the measured pKd for CN(C)CCc1ccc(O)cc1 [hordenine, Hordenine] ?
4.71

----------
# tested.on: PDK3 (Homo sapiens, UniProt Q15120)
assay.metric: IC50

PDK3 (Homo sapiens, UniProt Q15120) / IC50 / CN(C)CCc1ccc(O)cc1 [hordenine, Hordenine] : value?
5.4 µM

----------
# tested.on: PDK3 (Homo sapiens, UniProt Q15120)
# Construct: made in house
# test.details: Isothermal titration calorimetry
# Type: binding
# experimental.conditions: ITC 25 °C, 500 µM hordenine into 15 µM PDK3, four site model, site 1; read-out: Ka1 (Association Constant)
assay.metric: Kd (µM)
Give the value in µM but do not write µM after it.

Would you kindly share the measured Kd for CN(C)CCc1ccc(O)cc1 [hordenine, Hordenine] ?
51.3

Origin of values: paper PMC7277448
